Reported values of ratio of amounts bound (vs GLS3000) for individual entries
tested.system: CD3ε homodimer protein (human, UniProt P07766 23-126, limits assumed)
Sequence (P07766 23-126 limits assumed): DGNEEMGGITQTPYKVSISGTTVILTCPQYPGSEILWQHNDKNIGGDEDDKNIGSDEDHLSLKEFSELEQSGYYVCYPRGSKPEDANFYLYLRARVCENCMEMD
experimental.protocol: SPR, immobilized CD3ε homodimer;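 note: biacore T200 surface plasmon resonance at 25 °C, antibody variants flowed as analytes over amine-coupled CD3ε homodimer on a CM4 chip, variant binding amount divided by that of GLS3000 antibody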
Reply briefly: the number, and no unit.

GLS3000 R29Y (antibody, name in Kabat numbering, V domains shown, one-arm format as m2) VH: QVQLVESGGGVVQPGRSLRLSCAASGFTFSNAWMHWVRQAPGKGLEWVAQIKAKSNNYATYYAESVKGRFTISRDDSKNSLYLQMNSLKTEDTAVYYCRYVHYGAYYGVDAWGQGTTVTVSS VL: DIVMTQSPLSLPVTPGEPASISCRSSQSLVHSNYNTYLHWYQQKPGQAPRLLIYKVSNRFSGVPDRFSGSGSGTDFTLKISRVEAEDVGVYYCGQGTQVPYTFGQGTKLEIK	0.69

I would be grateful if you could share the reported ratio of amounts bound (vs GLS3000) for GLS3000 N53K (antibody, name in Kabat numbering, V domains shown, one-arm format as m2) VH: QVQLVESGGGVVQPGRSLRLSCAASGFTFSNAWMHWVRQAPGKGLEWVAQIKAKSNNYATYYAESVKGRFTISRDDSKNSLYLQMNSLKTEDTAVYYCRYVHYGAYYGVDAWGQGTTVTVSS VL: DIVMTQSPLSLPVTPGEPASISCRSSQSLVHSNRNTYLHWYQQKPGQAPRLLIYKVSKRFSGVPDRFSGSGSGTDFTLKISRVEAEDVGVYYCGQGTQVPYTFGQGTKLEIK .
1.08

I would be grateful if you could share the reported ratio of amounts bound (vs GLS3000) for GLS3000 V27cD (antibody, name in Kabat numbering, V domains shown, one-arm format as m2) VH: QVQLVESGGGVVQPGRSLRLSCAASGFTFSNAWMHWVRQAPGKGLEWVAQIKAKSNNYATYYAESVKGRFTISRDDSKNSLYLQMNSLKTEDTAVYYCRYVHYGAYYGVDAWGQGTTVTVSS VL: DIVMTQSPLSLPVTPGEPASISCRSSQSLDHSNRNTYLHWYQQKPGQAPRLLIYKVSNRFSGVPDRFSGSGSGTDFTLKISRVEAEDVGVYYCGQGTQVPYTFGQGTKLEIK .
0.32
